System: morningglory (Ipomoea spp.)
experiment: Test A pre-/postemergence plant response
Format: in vivo
condition-summary: Preemergence, 500 g ai/ha; visual injury, 0 to 100 scale (0 no effect, 100 complete control), approx. ten days
Simple rule here: Plant response rating, Morningglory less than 60 is t, otherwise f.

Query: Field: below-cutoff. Rule: recorded Plant response rating, Morningglory strictly less than 60. Subject: CCn1c(-c2cc(F)cc(F)c2)ncc(C(=O)C2=C(O)CCCC2=O)c1=O
Response: f

Query: For this compound, is Plant response rating, Morningglory lower than 60? Cc1ccc(-n2c(-c3ccccc3)ncc(C(=O)C3=C(O)CCCC3=O)c2=O)c(Cl)c1
Response: t

Query: Could you please tell me whether Plant response rating, Morningglory recorded for Cc1ccc(F)cc1-n1c(-c2cccc(Br)c2)ncc(C(=O)C2=C(O)CCCC2=O)c1=O is less than 60?
Response: t

Query: Strictly below 60 in Plant response rating, Morningglory? CC(C)Cc1ncc(C(=O)C2=C(O)CCCC2=O)c(=O)n1-c1ccccc1
Response: t

Query: Given CCCn1c(-c2cccc(F)c2)ncc(C(=O)C2=C(O)CCCC2=O)c1=O , is recorded Plant response rating, Morningglory strictly lower than 60?
Response: f

Query: Regarding O=C1CCCC(O)=C1C(=O)c1cnc(-c2ccccc2)n(C2CC2)c1=O , kindly confirm whether its Plant response rating, Morningglory is beneath 60.
Response: f

Query: Field: below-cutoff. Rule: recorded Plant response rating, Morningglory strictly less than 60. Subject: Cc1cc(-n2c(-c3cccc(Br)c3)ncc(C(=O)C3=C(O)CCCC3=O)c2=O)ccc1F
Response: t

Query: Please determine if COCCn1c(-c2cccc(Br)c2)ncc(C(=O)C2=C(O)CCCC2=O)c1=O is below 60 in terms of Plant response rating, Morningglory.
Response: f
